MEASUREMENT_TARGET: UniProtKB Q04206
PROTOCOL_SUMMARY: Enzyme-based ELISA NF-κB
Format: biochemical
CONDITION: NF-κB (p65) ED50
VALUE_TYPE: pIC50
Quick note: pIC50 values are minus log10 of concentrations in mol/L.

Query block: Tell me pIC50 of COc1ccc([C@]23Oc4cc(OC)cc(OC)c4[C@](O)(C2O)[C@@H](c2ccccc2)[C@@H]3C(=O)NCCCCNC(=O)/C(C)=C/CO)cc1 (stereo partly shown) when tested on UniProtKB Q04206.
Result block: 5.62

====

MEASUREMENT_TARGET: NF-κB (p65) (Homo sapiens)
Sequence (Q04206 whole entry): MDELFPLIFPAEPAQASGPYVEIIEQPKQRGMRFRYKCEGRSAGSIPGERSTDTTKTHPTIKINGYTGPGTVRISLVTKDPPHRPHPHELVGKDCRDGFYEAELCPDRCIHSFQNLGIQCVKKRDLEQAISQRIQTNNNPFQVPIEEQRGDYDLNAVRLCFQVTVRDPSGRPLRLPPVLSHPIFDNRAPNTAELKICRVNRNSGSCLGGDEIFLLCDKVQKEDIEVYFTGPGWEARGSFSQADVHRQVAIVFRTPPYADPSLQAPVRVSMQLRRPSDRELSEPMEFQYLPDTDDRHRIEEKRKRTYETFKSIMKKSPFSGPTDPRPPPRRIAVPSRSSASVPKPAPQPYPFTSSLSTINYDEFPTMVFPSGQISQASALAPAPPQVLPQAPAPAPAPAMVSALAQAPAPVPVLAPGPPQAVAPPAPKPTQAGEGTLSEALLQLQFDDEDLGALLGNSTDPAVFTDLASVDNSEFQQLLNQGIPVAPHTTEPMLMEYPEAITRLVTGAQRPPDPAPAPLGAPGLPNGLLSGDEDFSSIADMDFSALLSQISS
PROTOCOL_SUMMARY: Enzyme-based ELISA NF-κB
Type: biochemical
VALUE_TYPE: IC50 (nM)
Give the value, in units of nM, as a plain number.

Illustrative cases are given below, each with its answer.
INSERT INTO results (compound, observed_value) VALUES
  ('COc1cc(OC)c2c(c1)O[C@@]1(c3ccc4c(c3)OCO4)[C@H](c3ccccc3)C[C@@H](O)[C@@]21O [Compound 11]', 330),
  ('COC(=O)[C@H]1[C@@H](O)[C@@]2(O)c3c(OC)cc(OC)cc3O[C@@]2(c2ccc3c(c2)OCO3)[C@@H]1c1ccccc1 [Compound 12]', 3540),
  ('COc1ccc([C@@]23Oc4cc(OC)cc(OC)c4[C@]2(O)[C@H](O)C[C@H]3c2ccccc2)cc1 [Compound 9, rocaglaol]', 5);

Query block: Tell me IC50 reported for CC(C)[C@H]1CC[C@]2(C)C(=O)CCC(C=O)=C[C@H]12 [Compound 17, 2-oxaisodauc-5-en-12-al]
Result block: 5
